meta.source: patent US20190133128A1

Recorded Test D disease control rating, one value per entry.
Test system: Phytophthora infestans
Test: whole plant or invertebrate
Format: in vivo
Details: 250 ppm; tomato seedlings; 100 = 100% disease control, 0 = no control

- MOLECULE: "CC(C)n1ncc(O)c(C(=O)Nc2ccc(OC(F)(F)F)cc2)c1=O"
  ASSAY_TARGET: "Phytophthora infestans"
  UNIT_INFO: "%"
  Test D disease control rating: 99
- MOLECULE: "Cn1ncc(O)c(C(=O)Nc2ccc(F)cc2Cl)c1=O"
  ASSAY_TARGET: "Phytophthora infestans"
  UNIT_INFO: "%"
  Test D disease control rating: 0
- MOLECULE: "Cn1ncc(O)c(C(=O)Nc2ncccc2Cl)c1=O"
  ASSAY_TARGET: "Phytophthora infestans"
  UNIT_INFO: "%"
  Test D disease control rating: 94
- MOLECULE: "CSc1cnn(C)c(=O)c1C(=O)Nc1ccc(OC(F)(F)F)cc1"
  ASSAY_TARGET: "Phytophthora infestans"
  UNIT_INFO: "%"
  Test D disease control rating: 0
- MOLECULE: "Cn1ncc(OS(=O)(=O)c2ccccc2)c(C(=O)Nc2ccc(OC(F)(F)F)cc2)c1=O"
  ASSAY_TARGET: "Phytophthora infestans"
  UNIT_INFO: "%"
  Test D disease control rating: 96
- MOLECULE: "Cn1ncc(O)c(C(=O)Nc2ccc(-c3ccc(F)cc3)cc2)c1=O"
  ASSAY_TARGET: "Phytophthora infestans"
  UNIT_INFO: "%"
  Test D disease control rating: 40
- MOLECULE: "O=C(Nc1ccc(OC(F)(F)F)cc1)c1c(O)cnn(C2CC2)c1=O"
  ASSAY_TARGET: "Phytophthora infestans"
  UNIT_INFO: "%"
  Test D disease control rating: 97
- MOLECULE: "Cn1ncc(O)c(C(=O)Nc2c(Cl)cc(OC(F)(F)F)cc2Cl)c1=O"
  ASSAY_TARGET: "Phytophthora infestans"
  UNIT_INFO: "%"
  Test D disease control rating: 89
- MOLECULE: "COc1cccc(NC(=O)c2c(OS(C)(=O)=O)cnn(C)c2=O)c1"
  ASSAY_TARGET: "Phytophthora infestans"
  UNIT_INFO: "%"
  Test D disease control rating: 0
- MOLECULE: "Cn1ncc(OS(=O)(=O)Cc2ccccc2)c(C(=O)Nc2ccc(OC(F)(F)F)cc2)c1=O"
  ASSAY_TARGET: "Phytophthora infestans"
  UNIT_INFO: "%"
  Test D disease control rating: 0
- MOLECULE: "Cn1ncc([O-])c(C(=O)Nc2ccc(S(F)(F)(F)(F)F)cc2)c1=O.[Na+]"
  ASSAY_TARGET: "Phytophthora infestans"
  UNIT_INFO: "%"
  Test D disease control rating: 81
- MOLECULE: "Cn1ncc(O)c(C(=O)Nc2cccc(Oc3ccccc3)c2)c1=O"
  ASSAY_TARGET: "Phytophthora infestans"
  UNIT_INFO: "%"
  Test D disease control rating: 0
- MOLECULE: "Cn1ncc(OS(C)(=O)=O)c(C(=O)Nc2ccc(OC(F)(F)F)cc2F)c1=O"
  ASSAY_TARGET: "Phytophthora infestans"
  UNIT_INFO: "%"
  Test D disease control rating: 0
- MOLECULE: "Cn1ncc(O)c(C(=O)Nc2ccccc2-c2ccc(Cl)cc2)c1=O"
  ASSAY_TARGET: "Phytophthora infestans"
  UNIT_INFO: "%"
  Test D disease control rating: 0
- MOLECULE: "COc1ccc(NC(=O)c2c(Cl)cnn(C)c2=O)cc1"
  ASSAY_TARGET: "Phytophthora infestans"
  UNIT_INFO: "%"
  Test D disease control rating: 0
- MOLECULE: "O=C(Nc1ccc(OC(F)(F)F)cc1)c1c(O)cn[nH]c1=O"
  ASSAY_TARGET: "Phytophthora infestans"
  UNIT_INFO: "%"
  Test D disease control rating: 91
- MOLECULE: "Cn1ncc(OC(=O)c2ccccc2)c(C(=O)N(C(=O)c2ccccc2)c2ccc(OC(F)(F)F)cc2)c1=O"
  ASSAY_TARGET: "Phytophthora infestans"
  UNIT_INFO: "%"
  Test D disease control rating: 0
- MOLECULE: "Cn1ncc(OC(=O)C(C)(C)C)c(C(=O)Nc2ccc(OC(F)(F)F)cc2)c1=O"
  ASSAY_TARGET: "Phytophthora infestans"
  UNIT_INFO: "%"
  Test D disease control rating: 99
- MOLECULE: "O=C(Nc1ccc(OC(F)(F)F)cc1)c1c(O)cnn(-c2cccc(C(F)(F)F)c2)c1=O"
  ASSAY_TARGET: "Phytophthora infestans"
  UNIT_INFO: "%"
  Test D disease control rating: 0

---

System: Zymoseptoria tritici
Assay: Test E: preventive spray on wheat seedlings, wheat leaf blotch, visual disease rating
Assay type: in vivo
Conditions: Zymoseptoria tritici, 250 ppm, 100 = 100% disease control, 0 = no control
Reported pest or weed control at 250 ppm is given for each of the following compounds.

- MOLECULE: "Cn1ncc2oc(=O)n(-c3ccc(OC(F)(F)F)cc3)c(=O)c2c1=O"
  ASSAY_TARGET: "Zymoseptoria tritici"
  UNIT_INFO: "%"
  pest or weed control at 250 ppm: 97
- MOLECULE: "Cn1ncc(O)c(C(=O)Nc2ccc(S(F)(F)(F)(F)F)cc2)c1=O"
  ASSAY_TARGET: "Zymoseptoria tritici"
  UNIT_INFO: "%"
  pest or weed control at 250 ppm: 100
- MOLECULE: "Cn1ncc(OS(C)(=O)=O)c(C(=O)Nc2ccc(C(F)(F)F)cc2)c1=O"
  ASSAY_TARGET: "Zymoseptoria tritici"
  UNIT_INFO: "%"
  pest or weed control at 250 ppm: 97
- MOLECULE: "Cn1ncc(OS(C)(=O)=O)c(C(=O)Nc2ccc(OC(F)F)cc2)c1=O"
  ASSAY_TARGET: "Zymoseptoria tritici"
  UNIT_INFO: "%"
  pest or weed control at 250 ppm: 100
- MOLECULE: "Cn1ncc(O)c(C(=O)Nc2ccc(OC(F)(F)F)cc2)c1=O"
  ASSAY_TARGET: "Zymoseptoria tritici"
  UNIT_INFO: "%"
  pest or weed control at 250 ppm: 98
- MOLECULE: "Cn1ncc(Br)c(C(=O)Nc2ccc(OC(F)(F)F)cc2)c1=O"
  ASSAY_TARGET: "Zymoseptoria tritici"
  UNIT_INFO: "%"
  pest or weed control at 250 ppm: 99
- MOLECULE: "Cn1ncc(OS(C)(=O)=O)c(C(=O)Nc2ccc(S(F)(F)(F)(F)F)cc2)c1=O"
  ASSAY_TARGET: "Zymoseptoria tritici"
  UNIT_INFO: "%"
  pest or weed control at 250 ppm: 100
- MOLECULE: "Cn1ncc(O)c(C(=O)Nc2ccc(C(F)(F)F)cc2F)c1=O"
  ASSAY_TARGET: "Zymoseptoria tritici"
  UNIT_INFO: "%"
  pest or weed control at 250 ppm: 98
- MOLECULE: "Cn1ncc(O)c(C(=O)Nc2ccc(C(F)(F)F)cc2)c1=O"
  ASSAY_TARGET: "Zymoseptoria tritici"
  UNIT_INFO: "%"
  pest or weed control at 250 ppm: 97

---

Tested on: Puccinia recondita f. sp. tritici
Experiment: Test F: preventive spray on wheat seedlings, wheat leaf rust, visual disease rating
Assay type: in vivo
Settings: 200 ppm
Readings of Test F disease control rating for the listed compounds

- MOLECULE: "Cn1ncc(O)c(C(=O)Nc2ccc3c(c2)OC(F)(F)O3)c1=O"
  ASSAY_TARGET: "Puccinia recondita f. sp. tritici"
  Test F disease control rating, %: 98
- MOLECULE: "COc1cnn(C)c(=O)c1C(=O)Nc1ccc(Cl)cc1"
  ASSAY_TARGET: "Puccinia recondita f. sp. tritici"
  Test F disease control rating, %: 0
- MOLECULE: "Cc1cc(Cl)ccc1NC(=O)c1c(O)cnn(C)c1=O"
  ASSAY_TARGET: "Puccinia recondita f. sp. tritici"
  Test F disease control rating, %: 99
- MOLECULE: "Cn1ncc(O)c(C(=O)Nc2ccc(Cl)cc2C#N)c1=O"
  ASSAY_TARGET: "Puccinia recondita f. sp. tritici"
  Test F disease control rating, %: 91
- MOLECULE: "Cn1ncc(O)c(C(=O)Nc2cccc(C#N)c2)c1=O"
  ASSAY_TARGET: "Puccinia recondita f. sp. tritici"
  Test F disease control rating, %: 91
- MOLECULE: "Cn1ncc(O)c(C(=O)Nc2ccc(Cl)cc2)c1=O"
  ASSAY_TARGET: "Puccinia recondita f. sp. tritici"
  Test F disease control rating, %: 99
- MOLECULE: "Cn1ncc(O)c(C(=O)Nc2ccc(Cl)c(C(F)(F)F)c2)c1=O"
  ASSAY_TARGET: "Puccinia recondita f. sp. tritici"
  Test F disease control rating, %: 83
- MOLECULE: "Cn1ncc(O)c(C(=O)Nc2cccc(F)c2)c1=O"
  ASSAY_TARGET: "Puccinia recondita f. sp. tritici"
  Test F disease control rating, %: 89
- MOLECULE: "Cn1ncc(O)c(C(=O)Nc2cccc3cccnc23)c1=O"
  ASSAY_TARGET: "Puccinia recondita f. sp. tritici"
  Test F disease control rating, %: 96
- MOLECULE: "Cn1ncc(O)c(C(=O)Nc2cccc(Cl)c2)c1=O"
  ASSAY_TARGET: "Puccinia recondita f. sp. tritici"
  Test F disease control rating, %: 95
- MOLECULE: "CCn1ncc(O)c(C(=O)Nc2ccc(OC(F)(F)F)cc2)c1=O"
  ASSAY_TARGET: "Puccinia recondita f. sp. tritici"
  Test F disease control rating, %: 84
- MOLECULE: "CCn1ncc(O)c(C(=O)Nc2ccc(Cl)nc2)c1=O"
  ASSAY_TARGET: "Puccinia recondita f. sp. tritici"
  Test F disease control rating, %: 91
- MOLECULE: "Cn1ncc(O)c(C(=O)Nc2c(F)cccc2F)c1=O"
  ASSAY_TARGET: "Puccinia recondita f. sp. tritici"
  Test F disease control rating, %: 0
- MOLECULE: "O=C(Nc1ccc(Cl)nc1)c1c(O)cnn(-c2ccccc2)c1=O"
  ASSAY_TARGET: "Puccinia recondita f. sp. tritici"
  Test F disease control rating, %: 98
- MOLECULE: "Cn1ncc(O)c(C(=O)Nc2ccc(Cl)c(Cl)c2)c1=O"
  ASSAY_TARGET: "Puccinia recondita f. sp. tritici"
  Test F disease control rating, %: 99
- MOLECULE: "CCCn1ncc(O)c(C(=O)Nc2ccc(OC(F)(F)F)cc2)c1=O"
  ASSAY_TARGET: "Puccinia recondita f. sp. tritici"
  Test F disease control rating, %: 95
- MOLECULE: "Cc1nn(C)c(=O)c(C(=O)Nc2ccc(OC(F)(F)F)cc2)c1O"
  ASSAY_TARGET: "Puccinia recondita f. sp. tritici"
  Test F disease control rating, %: 0
- MOLECULE: "Cn1ncc(O)c(C(=O)Nc2ccccc2Cl)c1=O"
  ASSAY_TARGET: "Puccinia recondita f. sp. tritici"
  Test F disease control rating, %: 97
